- Test protocol: Solubility in tBME
- Format: physicochemical
- Condition set: organic solvent or mixture
Result type: solubility

[
  {
    "Compound": "CC[C@H]1OC(=O)C[C@@H](O)[C@H](C)[C@@H](OC2OC(C)C(O)C(N(C)C)C2O)[C@@H](CCN2CCCCC2)C[C@@H](C)C(=O)/C=C/C(C)=C/[C@@H]1CN1CCCCC1 (stereo in doubt) [tBME S2 crystalline solvate]",
    "Recorded result": "40 to 50 mg/mL"
  }
]

----------
- Test protocol: Thermogravimetry coupled to FTIR (TG-FTIR)
- Assay type: physicochemical
- Method: Measurements of thermogravimetry coupled to Fourier transform infrared spectroscopy (“TG-FTIR”) were obtained using a Netzsch Thermo-Microbalance TG 209 with a Bruker Vector 22 FT-IR Spectrometer using an aluminum crucible (with micro-hole or open), N2 atmosphere, heating rate of 10° C./min, and temperature range of 25-250° C.

[
  {
    "Compound": "CC[C@H]1OC(=O)C[C@@H](O)[C@H](C)[C@@H](OC2OC(C)C(O)C(N(C)C)C2O)[C@@H](CCN2CCCCC2)C[C@@H](C)C(=O)/C=C/C(C)=C/[C@@H]1CN1CCCCC1 (stereo in doubt) [diethyl ketone S1 crystalline solvate]",
    "weight loss due to liberation of solvent": "10%"
  },
  {
    "Compound": "CC[C@H]1OC(=O)C[C@@H](O)[C@H](C)[C@@H](OC2OC(C)C(O)C(N(C)C)C2O)[C@@H](CCN2CCCCC2)C[C@@H](C)C(=O)/C=C/C(C)=C/[C@@H]1CN1CCCCC1 (stereo in doubt) [tBME S2 crystalline solvate]",
    "weight loss due to liberation of solvent": "8.7-10%"
  }
]
